tested_target: Neu5Ac(a2-6)Gal(b1-4)GlcNAc(b1-3)Gal(b1-4)GlcNAc
procedure_text: glycan array binding signal (z-score within array); higher = stronger binding
setup_conditions: glycan notation: IUPAC condensed, linker removed
This is one part of a sample in which the strongest signals are shown more often than they occur.
property: glycan array binding signal (z-score)
Would you mind answering with just the numeric figure?

Illustrative cases are given below, each with its answer.
| binder | property | reading |
| --- | --- | --- |
| Surfactant Protein D (rat); Neck + Carbohydrate Recognition Domain (NCRD) (Rattus norvegicus) (protein) MLLFLLSALVLLTQPLGYLEAEMKTYSHRTMPSACTLVMCSSVESGLPGRDGRDGREGPRGEKGDPGLPGAAGQAGMPGQAGPVGPKGDNGSVGEPGPKGDTGPSGPPGPPGVPGPAGREGALGKQGNIGPQGKPGPKGEAGPKGEVGAPGMQGSAGARGAGPKGERGVPGERGVPGNTGAAGSAGAMGPQGSPGARGPPGLKGDKGIPGDKGAKGESGLPDVASLRQQVEALQGQVQHLQAAFSQYKKVELFPNGQSVGEKIFKTAGFVKPFTEAQLLCTQAGGQLASPRSAAENAALQQLVVAKNEAAFLSMTDSKTEGKFTYPTGESLVYSNWAPGEPNDDGGSEDCVEIFTNGKWNDRACGEKRLVVCEF | glycan array binding signal (z-score) | -0.105 |
| Siglec-H (Mus musculus), Q4QQK7 (protein) MLLSRLLPLLWVLKWASGNCFILPREVIGTYPSLTLELQSVTVQEGLCVLVPCHLIEYPMNRWSDAAFGYWFHEGENTHPDSLVATNKPYQLVQKEMQSRFHFSGDCSLDIRDAQKGDNGSYFFRLEKGGKTWNFCEERISVHVTDLTHSPNISIPQTLELGRPTNVMCSVPWACERGTPPIFSWMSAALISLGPTTTLSSVLTLTPRLQDHGTNLTCQVTFPGAGVTVQKTIQLNVTYNSQNSTAHVSGRVGPGKPRPLADVVQVAMGEAAIKFLLLGICFFFLSKRSHTKRVERPATHMDQAHAVMD | glycan array binding signal (z-score) | 1.02 |

Entry Cohesin-marm-DC-ASGPR-CRD (protein) LDITSHHHHHHDDLDAVRIKVDTVNAKPGDTVRIPVRFSGIPSKGIANCDFVYSYDPNVLEIIEIEPGDIIVDPNPDKSFDTAVYPDRKIIVFLFAEDSGTGAYAITKDGVFATIVAKVKEGAPNGLSVIKFVEVGGFANNDLVEQKTQFFDGGVNVGDTTEPATPTTPVTTPTTTDDLDAASCPINWVEHQGSCYWFSRSGKTWPEAERYCQLENTHLVVINSREEQNFVQAHLGSAYTWMGLSDPEGVWKWVDGTDYSSGFQNWKPGQPDDWQGHGLGGGEDCAHFHPDGRWNDDVCQRSYHWVCEAGLTQASQDSH ; glycan array binding signal (z-score) = -0.46

Cited source for all entries: the supplement of paper PMC8728848
